- Test System: hemagglutinin of A/Indonesia/05/2005 (H5N1), in the influenza virus antigen standard (Influenza A virus A/Indonesia/05/2005 …, UniProt A5A5L7, strain)
- Experiment Summary: ELISA
- Recorded Conditions: one partner purified
Metric: binding result

[
  {
    "Binder": "R2b-D8 (VHH, source: E. coli WK6 periplasm, purified (Talon IMAC, Superdex 75 SEC)) VHH: QVQLVESGGGLVQPGGSLRLSCAASGFTFSWYDVGWYRRAPGKERELVADIASTRGTTNYADSVKGRFTISRDNAKNSVYLQMNSLKPEDTAVYYCNTRRDWRDYWGQGIQVTVSS",
    "Metric": "binding result",
    "Measured": "binds"
  },
  {
    "Binder": "R2a-G8 (VHH, source: E. coli WK6 periplasm, purified (Talon IMAC, Superdex 75 SEC)) VHH: QLQLAESGGGLVQAGGSLRLSCAASGSTLNNNAIGWFRQAPGKEREGVSCMNSRDGTTNYADSVKGRFTISRDVAKNTVYLQMNSLKPEDTAVYFCAVKGFAPFLIGCPWGKAEYDYWGQGTQVTVSS",
    "Metric": "binding result",
    "Measured": "binds"
  },
  {
    "Binder": "R1a-A5 (VHH, also called R1a-A5 monovalent; source: E. coli WK6 periplasm, purified (Talon IMAC, Superdex 75 SEC)) VHH: QVQLVESGGGLVQPGGSLRLSCSASGSAVLFSTYPMSWYRQAPGKQRELVAAVTTDGSTSYADYAKGRFTISRDNAKNTVYLQMNSLKPEDTAVYYCNARDGFFNRYDYWGQGTQVTVSS",
    "Metric": "binding result",
    "Measured": "binds"
  },
  {
    "Binder": "R2b-E8 (VHH, source: E. coli WK6 periplasm, purified (Talon IMAC, Superdex 75 SEC)) VHH: QVQLVESGGGLVQPGGSLRLSCAASGSFFSRYRMGWYRQAPGEQRELVAGITYDDSTNYAGSVKGRFTISRDNAKNTVHLQMNSLKPEDTAVYYCNLNPPGNLYWGQGTQVTVSS",
    "Metric": "binding result",
    "Measured": "binds"
  },
  {
    "Binder": "R1a-B6 (VHH, also called R1a-B6 monovalent; source: E. coli WK6 periplasm, purified (Talon IMAC, Superdex 75 SEC)) VHH: QVQLVESGGGLVQPGGSLRLSCAASGSFFSRYRMGWYRQAPGEQRELVASIAYDGSTSYADPVKGRFTISRDNANTVHLQMYSLKPDDTAVYYCNLDPPGILYWGQGTQVTVSS",
    "Metric": "binding result",
    "Measured": "binds"
  }
]

Turning now to a further binder:
IN: Record request: binding result value, item R2b-D9 (VHH, source: E. coli WK6 periplasm, purified (Talon IMAC, Superdex 75 SEC)) VHH: QVQLVESGGGLVQPGGSLRLSCLASGSAFSLYTMGWYRQAPGNQRELVAAITSGESTNYADSVKGRFTISRDNAKNTVYLQMNSLKPEDTAVYYCNADPLSTGWGQYSYWGQGTQVTVSS
OUT: binds

Attribution: paper PMC4118869
